Biological target: hTRα1 (Homo sapiens, UniProt P10827)
Sequence (P10827 1-410 isoform P10827-2): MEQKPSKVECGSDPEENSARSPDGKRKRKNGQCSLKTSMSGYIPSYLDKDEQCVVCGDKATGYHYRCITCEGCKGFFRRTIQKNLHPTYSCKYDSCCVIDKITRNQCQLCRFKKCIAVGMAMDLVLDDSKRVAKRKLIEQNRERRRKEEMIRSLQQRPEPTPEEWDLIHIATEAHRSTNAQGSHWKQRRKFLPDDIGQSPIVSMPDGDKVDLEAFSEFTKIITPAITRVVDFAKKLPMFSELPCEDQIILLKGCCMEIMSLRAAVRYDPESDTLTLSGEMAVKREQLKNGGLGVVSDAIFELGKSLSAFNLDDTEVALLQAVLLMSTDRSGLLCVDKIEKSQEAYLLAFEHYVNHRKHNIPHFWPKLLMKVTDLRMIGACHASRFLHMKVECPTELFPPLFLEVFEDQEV
pIC50: −log10 of the molar value.
MEASURED_ATTRIBUTE: pIC50

[ask] Any idea what pIC50 was measured for Cc1cn(CCN2CCN(c3ccccc3-c3cc(C#N)cc(C(=O)NCCCN4CCCC4)c3)CC2)c2ccccc12 ?
[reply] < 5.00
